Target: INSRR (human)
Experiment: radiometric filter-binding kinase assay, Kinase HotSpot
Conditions: compound 0.5 µM; ATP 10 µM
residual activity of 90% or higher: true (1). Under 90%: false (0).

1) Nc1nccc(-c2c(-c3ccc(F)cc3)ncn2C2CCNCC2)n1 :: true (1)
2) CN(C)C[C@H]1CCn2c(c(C3=C(c4cn(C)c5ccccc45)C(=O)NC3=O)c3ccccc32)C1 :: true (1)
3) Cc1nc2cc3nc(-c4cccs4)cnc3cc2n1C :: true (1)
4) CC(C)[C@H](CO)Nc1nc(Nc2cc(N)cc(Cl)c2)c2ncn(C(C)C)c2n1 :: false (0)

====

Molecular target: CAMK1D (human) (UniProt Q8IU85)
Sequence (Q8IU85 whole entry, looked up): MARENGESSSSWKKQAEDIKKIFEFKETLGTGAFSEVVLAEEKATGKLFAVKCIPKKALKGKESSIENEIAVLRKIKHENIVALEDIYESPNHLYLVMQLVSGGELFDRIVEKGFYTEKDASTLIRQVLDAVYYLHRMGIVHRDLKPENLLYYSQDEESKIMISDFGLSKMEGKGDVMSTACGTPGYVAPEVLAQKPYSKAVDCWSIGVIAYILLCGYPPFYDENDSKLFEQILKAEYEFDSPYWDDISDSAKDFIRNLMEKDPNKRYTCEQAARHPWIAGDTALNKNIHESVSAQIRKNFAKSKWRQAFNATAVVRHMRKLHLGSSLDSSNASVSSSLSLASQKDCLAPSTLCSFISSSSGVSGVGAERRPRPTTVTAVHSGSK
Assay: radiometric filter-binding kinase assay, Kinase HotSpot
Settings: compound 0.5 µM; ATP 10 µM
Metric: residual activity (%)

1. COc1ccc(CNC(=O)Nc2ncc([N+](=O)[O-])s2)cc1 :: 112
2. O=C1Nc2ccccc2/C1=C1/Nc2ccccc2/C1=N\OCCC(O)CO (configuration not stated) :: 80.3
3. CN([C@@H](Cc1ccc(OS(=O)(=O)c2cccc3cnccc23)cc1)C(=O)N1CCN(c2ccccc2)CC1)S(=O)(=O)c1cccc2cnccc12 :: 101
4. Cn1cnc2cc3c(Nc4cccc(Br)c4)ncnc3cc21 :: 104
5. CC(C)[C@H](CO)Nc1nc(Nc2cc(N)cc(Cl)c2)c2ncn(C(C)C)c2n1 :: 103
6. Cn1nc2c3c(cccc31)C(=O)c1ccccc1-2 :: 70.3
7. CCn1cnc2c(Nc3cccc(Cl)c3)nc(N[C@@H]3CCCC[C@@H]3N)nc21 :: 96.7
8. CC(C)c1nn(-c2c(Cl)cccc2Cl)c2nc(Cc3ccc(OCCO)cc3)nc(O)c12 :: 102
9. O=C(Nc1cccc(Nc2cc(Nc3cccc(C(F)(F)F)c3)ncn2)c1)C1CC1 :: 100
10. O=C1NC(=O)/C(=C\c2ccc3nccnc3c2)S1 :: 102
11. Nc1nccc(-c2c(-c3ccc(F)cc3)ncn2C2CCNCC2)n1 :: 103
12. COc1ccc(OC)c2c(=S)c3ccccc3[nH]c12 :: 104
13. O=C(O)/C=C/c1cc(Br)c(Br)c(Br)c1Br :: 98.1
14. O=C1NC(=O)C(c2cn(CCCO)c3ncccc23)=C1c1cnccn1 :: 95.1
15. Cn1sc(=O)n(Cc2ccccc2)c1=O :: 97.1
16. Nc1nnc2[nH]c3ccccc3nc1-2 :: 98.3
17. COc1cc2ncnc(N3CCN(C(=O)Nc4ccc(Oc5ccccc5)cc4)CC3)c2cc1OC :: 104
18. O=C1NC(=O)C(c2c[nH]c3ccccc23)=C1c1c[nH]c2ccccc12 :: 106
19. Oc1ccc(Nc2nc(-c3ccc(Cl)cc3)cs2)cc1 :: 103
20. O=C1Nc2ccccc2/C1=C1\Nc2ccccc2\C1=N/O :: 92.3
21. COc1cc2ncc(-c3ccccc3)nc2cc1OC :: 96.6
22. O=C1Cc2c([nH]c3ccc(Br)cc23)-c2ccccc2N1 :: 112
23. CCN(CC)CCCCN1c2ccccc2Oc2ccc(Cl)cc21 :: 107
24. CN(C)C[C@H]1CCn2c(c(C3=C(c4cn(C)c5ccccc45)C(=O)NC3=O)c3ccccc32)C1 :: 101
25. CC(=O)O/N=C1\C(=C2\C(=O)Nc3cc(Br)ccc32)Nc2ccccc21 :: 79.1
26. Cc1nc2cc3nc(-c4cccs4)cnc3cc2n1C :: 107
27. O=C(CCCc1ccc(-c2ccccc2F)cc1)Nc1ccc(O)cc1 :: 122

Sourced from the kinase profiling compilation of Christmann-Franck et al. (2016)
